RECORDED METRIC: pIC50
The read-out pIC50 is expressed as -log10 of concentration in moles per litre.

Lookup: Observed pIC50 on Human immunodeficiency virus type 1 protease (Human immunodeficiency virus 1) for O=C(N[C@@H](Cc1ccccc1)[C@@H](O)C[C@]1(Cc2ccccc2)N=CC(C2c3ccccc3C[C@H]2O)=C1O)O[C@H]1CCOC1 (some centres not stated) , please.
Found: 8.70

Lookup: Provide value of pIC50 for this record tested with Human immunodeficiency virus type 1 protease (Human immunodeficiency virus 1): CN(C(=O)[C@H](Cc1ccccc1)C[C@H](O)[C@H](Cc1ccccc1)NC(=O)OC(C)(C)C)C1c2ccccc2C[C@H]1O (single isomer, unassigned)
Found: 6.73

Lookup: # query: pIC50 | item CC(C)(C)OC(=O)N[C@@H](Cc1ccccc1)[C@@H](O)C[C@@](C)(Cc1ccccc1)C(=O)NC1c2ccccc2C[C@H]1O (single isomer, unassigned) | system: Human immunodeficiency virus type 1 protease (Human immunodeficiency virus 1)
Found: 8.15

Lookup: Form field - read-out: pIC50; system: Human immunodeficiency virus type 1 protease (Human immunodeficiency virus 1); submitted item: CC(C)(C)OC(=O)N[C@@H](Cc1ccccc1)[C@@H](O)C[C@]1(Cc2ccc(O)cc2)N=CC(C2c3ccccc3C[C@H]2O)=C1O (some centres not stated)
Found: 8.22

Lookup: Short answer please: pIC50, Human immunodeficiency virus type 1 protease (Human immunodeficiency virus 1), entry CC(C)(C)OC(=O)N[C@@H](Cc1ccccc1)[C@@H](O)C[C@]1(Cc2ccccc2)N=CC(C2c3ccccc3C[C@H]2O)=C1O (some centres not stated)
Found: 7.92

Lookup: Form entry - test system: Human immunodeficiency virus type 1 protease (Human immunodeficiency virus 1); read-out: pIC50; molecule: O=C(N[C@@H](Cc1ccccc1)[C@@H](O)C[C@@H](Cc1ccccc1)C(=O)NC1c2ccccc2C[C@H]1O)OC1CCOC1 (single isomer, unassigned)
Found: 10.52

Lookup: Recall the recorded pIC50 for CC(C)(C)OC(=O)N[C@@H](Cc1ccccc1)[C@@H](O)CC1(Cc2ccccc2)CCN(C2c3ccccc3C[C@H]2O)C1=O (single isomer, unassigned) with Human immunodeficiency virus type 1 protease (Human immunodeficiency virus 1) and state it.
Found: 7.07

Cited source: ChEMBL document CHEMBL1130425
